// values below are reported IC50
system: Telomerase reverse transcriptase (Homo sapiens, UniProt O14746)
Sequence (O14746 whole entry): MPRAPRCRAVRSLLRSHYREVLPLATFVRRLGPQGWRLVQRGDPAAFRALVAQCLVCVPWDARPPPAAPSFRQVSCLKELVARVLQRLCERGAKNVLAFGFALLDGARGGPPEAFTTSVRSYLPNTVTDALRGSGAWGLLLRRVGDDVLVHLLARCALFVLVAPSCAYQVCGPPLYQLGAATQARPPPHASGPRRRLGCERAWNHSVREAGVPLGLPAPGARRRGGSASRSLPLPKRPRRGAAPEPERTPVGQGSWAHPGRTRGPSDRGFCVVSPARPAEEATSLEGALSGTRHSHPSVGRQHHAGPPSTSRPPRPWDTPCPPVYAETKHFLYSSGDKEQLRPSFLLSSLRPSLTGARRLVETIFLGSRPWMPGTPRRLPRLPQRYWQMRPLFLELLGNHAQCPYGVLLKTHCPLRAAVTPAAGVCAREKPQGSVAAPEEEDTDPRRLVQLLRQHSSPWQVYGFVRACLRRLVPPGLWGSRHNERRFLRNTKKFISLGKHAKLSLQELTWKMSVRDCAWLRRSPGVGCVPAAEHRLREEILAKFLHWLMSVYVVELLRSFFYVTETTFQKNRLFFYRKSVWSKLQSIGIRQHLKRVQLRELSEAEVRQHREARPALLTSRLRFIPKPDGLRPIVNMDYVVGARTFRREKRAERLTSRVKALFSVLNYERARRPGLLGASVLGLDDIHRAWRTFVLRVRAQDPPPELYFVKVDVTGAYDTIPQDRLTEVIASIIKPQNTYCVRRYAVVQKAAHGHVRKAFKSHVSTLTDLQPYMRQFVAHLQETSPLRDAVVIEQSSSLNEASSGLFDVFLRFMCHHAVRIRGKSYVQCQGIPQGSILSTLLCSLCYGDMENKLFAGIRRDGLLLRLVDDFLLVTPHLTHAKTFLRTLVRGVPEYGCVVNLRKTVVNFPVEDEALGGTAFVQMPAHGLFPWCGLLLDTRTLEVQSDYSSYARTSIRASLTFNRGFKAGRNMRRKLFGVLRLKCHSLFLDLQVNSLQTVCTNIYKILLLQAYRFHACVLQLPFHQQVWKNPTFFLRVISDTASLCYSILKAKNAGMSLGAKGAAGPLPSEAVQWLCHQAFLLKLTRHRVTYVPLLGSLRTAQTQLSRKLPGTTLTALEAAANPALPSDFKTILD
testSummary: Inhibition of human telomerase transfected in human HEK293T cells assessed as DNA extension using 5'-d(AATCCGTCGAGCAGAGTT)-3' substrate by Real-time quantitative telomeric repeat amplification protocol
Format: cell-based
testParameters: hek-293t
reportedProperty: IC50 (µM)

| compound | valueMeasured |
| --- | --- |
| Cl.N=C(N)NCCNc1c2c(c(NCCCN)c3sccc13)C(=O)c1ccccc1C2=O | 0.07 |
| Cl.N=C(N)NCCNc1c2c(c(NCCNC(=N)N)c3sccc13)C(=O)c1ccccc1C2=O | 0.08 |
| CC(=N)NCCNc1c2c(c(NCCNC(C)=N)c3sccc13)C(=O)c1ccccc1C2=O | 0.3 |
| CNCCNc1c2c(c(NCCNC(=N)N)c3sccc13)C(=O)c1ccccc1C2=O | 0.05 |
| N=C(N)NCCNc1c2c(c(N)c3sccc13)C(=O)c1ccccc1C2=O | 0.9 |

----------
Species: Homo sapiens
testSummary: Binding affinity to human telomeric G-quadruplex TelQ22-DA DNA assessed as change in melting temperature by FRET assay

| compound | outputUnit | ΔTm |
| --- | --- | --- |
| Cl.N=C(N)NCCNc1c2c(c(NCCCN)c3sccc13)C(=O)c1ccccc1C2=O | °C | 10 |
| Cl.N=C(N)NCCNc1c2c(c(NCCNC(=N)N)c3sccc13)C(=O)c1ccccc1C2=O | °C | 12 |
| N=C(N)NCCNc1c2c(c(NCCN)c3sccc13)C(=O)c1ccccc1C2=O | °C | 5 |
| CNCCNc1c2c(c(NCCNC(=N)N)c3sccc13)C(=O)c1ccccc1C2=O | °C | 5.1 |
| Nc1c2c(c(N)c3sccc13)C(=O)c1ccccc1C2=O | °C | 0.1 |
| CNCCNc1c2c(c(NCCNC(=N)N)c3ccsc13)C(=O)c1ccccc1C2=O | °C | 5.4 |
| CNCCNc1c2c(c(NCCNC)c3sccc13)C(=O)c1ccccc1C2=O.Cl | °C | 4.3 |
| N=C(N)NCCNc1c2c(c(N)c3sccc13)C(=O)c1ccccc1C2=O | °C | 1 |
| N=C(N)NCCNc1c2c(c(N)c3ccsc13)C(=O)c1ccccc1C2=O | °C | 1 |
| CC(=N)NCCNc1c2c(c(NCCNC(C)=N)c3sccc13)C(=O)c1ccccc1C2=O | °C | 7 |

----------
Species on record: Homo sapiens
testSummary: Binding affinity to human telomeric G-quadruplex TelQ24 (5'-d(TTAGGG)4)-3') DNA at 25 degC by fluorescent intercalator displacement assay
Consider the cut-off 9 ×10⁶ /M. If the recorded Kb is strictly smaller, the label is criterion met; if not, the label is criterion not met.

| compound | qualitativeLabel |
| --- | --- |
| N=C(N)NCCNc1c2c(c(NCCN)c3sccc13)C(=O)c1ccccc1C2=O | criterion not met |
| CNCCNc1c2c(c(NCCNC(=N)N)c3ccsc13)C(=O)c1ccccc1C2=O | criterion met |
| CC(=N)NCCNc1c2c(c(NCCNC(C)=N)c3sccc13)C(=O)c1ccccc1C2=O | criterion met |
| N=C(N)NCCNc1c2c(c(N)c3sccc13)C(=O)c1ccccc1C2=O | criterion met |
